These data points were gathered from patent US7166588B2.

# TEST SYSTEM: acetylcholinesterase (AChE), human recombinant (Homo sapiens)
# Sequence (P22303 32-614): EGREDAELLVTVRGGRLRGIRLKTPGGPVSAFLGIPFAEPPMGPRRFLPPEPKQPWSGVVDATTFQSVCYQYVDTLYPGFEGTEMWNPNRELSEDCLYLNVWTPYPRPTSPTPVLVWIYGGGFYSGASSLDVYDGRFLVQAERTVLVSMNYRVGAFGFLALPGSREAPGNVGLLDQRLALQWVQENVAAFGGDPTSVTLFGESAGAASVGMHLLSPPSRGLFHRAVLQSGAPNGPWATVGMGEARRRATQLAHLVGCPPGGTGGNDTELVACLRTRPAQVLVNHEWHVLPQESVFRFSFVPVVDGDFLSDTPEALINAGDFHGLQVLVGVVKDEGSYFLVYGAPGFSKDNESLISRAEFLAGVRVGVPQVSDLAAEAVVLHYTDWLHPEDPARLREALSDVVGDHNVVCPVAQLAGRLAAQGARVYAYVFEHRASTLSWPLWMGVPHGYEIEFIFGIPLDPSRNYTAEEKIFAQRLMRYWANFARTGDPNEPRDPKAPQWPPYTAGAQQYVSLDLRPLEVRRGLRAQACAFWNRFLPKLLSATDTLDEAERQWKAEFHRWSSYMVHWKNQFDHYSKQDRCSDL
# PROTOCOL TEXT: biochemical
# CONDITION LABEL: pre-incubation of the enzyme with inhibitor, read-out: IC50 (AChE, mE, hr)
EXPERIMENTAL READOUT: log10 IC50 (log10 of the value in µM)
Values are log10 of IC50 in µM.

Query: log10 IC50; subject: COc1ccc2c3c1O[C@@H]1CC(O)C=CC31CCN(c1cccs1)C2 (some centres unmarked)
0.60

Any idea what its log10 IC50 is? The molecule is COc1ccc2c3c1O[C@@H]1C[C@H](O)C=CC31CCN(CCCN)C2 (some centres unmarked)
0.53

Which log10 IC50 reading was recorded for the molecule CCN(CC)c1nccc(N2CCC34C=C[C@@H](O)C[C@H]3Oc3c(OC)ccc(c34)C2)n1 (some centres unmarked) ?
1.40

What does the record list as log10 IC50 for COc1ccc2c3c1O[C@@H]1CC(O)C=CC31CCN(c1ccnc(OCCCN(C)C)n1)C2 (stereo in doubt) ?
0.88

Which log10 IC50 is listed for COc1ccc2c3c1O[C@@H]1CC(O)C=CC31CCN(CC(=O)N1CC3CC1CN3c1ccccc1)C2 (some centres unmarked) ?
0.92

Reported log10 IC50 for COc1ccc2c3c1O[C@@H]1CC(O)C=CC31CCN(/C(=N/C#N)SC)C2 (some centres unmarked) : what is it?
0.83

Please give the measured log10 IC50 for this molecule: COc1ccc2c3c1O[C@@H]1CC(O)C=CC31CCN(C(=S)Oc1ccccc1)C2 (some centres unmarked)
0.86

Entry CNC(=S)N1CCC23C=C[C@@H](O)C[C@H]2Oc2c(OC)ccc(c23)C1 (some centres unmarked) [SPH-1287] : reported log10 IC50 = ?
1.27

Which log10 IC50 is listed for COc1cc(C)c2c3c1OC1CC(O)C=CC31CCN(C)C2C (centres unmarked) ?
1.92

Entry under review: COc1ccc2c3c1O[C@@H]1CC(O)C=CC31CCN(C(=O)Oc1ccccc1)C2 (some centres unmarked) . Reported log10 IC50?
1.66

Which log10 IC50 reading was recorded for the molecule COc1ccc2c3c1O[C@@H]1CC(O)C=CC31CCN(C(=O)OCC1c3ccccc3-c3ccccc31)C2 (some centres unmarked) ?
1.60

Given the entry CNC(=S)N1CCC23C=C[C@@H](O)C[C@H]2Oc2c(OC)ccc(c23)C1 (some centres unmarked) [SPH-1211] , report its measured log10 IC50.
1.36

// log10 IC50 lookup, key: COc1ccc2c3c1O[C@@H]1C[C@H](O)C=CC31CCN(C(=O)NC(C)(C)C)C2 (some centres unmarked) [SPH-1221]
0.68

Look up log10 IC50: COc1ccc2c3c1O[C@@H]1CC(O)C=CC31CCN(CC#N)C2 (some centres unmarked)
1.18

Give its log10 IC50 value. Item: CCN(CC)c1nc(N(CC)CC)nc(N2CCC34C=C[C@@H](O)C[C@H]3Oc3c(OC)ccc(c34)C2)n1 (some centres unmarked)
1.60

Name the recorded log10 IC50 for CNC(=S)N1CCC23C=C[C@H](O)CC2Oc2c(OC)cc(Br)c(c23)C1 (some centres unmarked) .
1.49

# log10 IC50 lookup, item COc1ccc2c3c1O[C@@H]1C[C@H](N)C=CC31CCN(C)C2 (some centres unmarked)
1.60
